- System: B16
- protocol summary: Tested in vitro for cytotoxicity against B16 murine melanoma cells
- Type: functional, Mus musculus
// reported LC99 per item
observed property: LC99 (µM)

                                   compound   val
0  O=[N+]([O-])c1ccc(COP(=O)(N(CCCl)CCCl)N(CCCl)CCCl)o1   9.3
1  Cn1c(COP(=O)(N(CCBr)CCBr)N(CCBr)CCBr)ccc1[N+](=O)[O-]    14
2  NP(=O)(OCc1cc(Br)c([N+](=O)[O-])s1)N(CCBr)CCBr (stereo not given)  0.44
3  N#Cc1cc(COP(N)(=O)N(CCBr)CCBr)sc1[N+](=O)[O-] (stereo not given)  0.45
4  Cn1c(COP(=O)(N(CCCl)CCCl)N(CCCl)CCCl)ccc1[N+](=O)[O-]    70
5  O=[N+]([O-])c1ccc(COP(=O)(N(CCBr)CCBr)N(CCBr)CCBr)s1   1.1
6    O=P(OCc1cccs1)(N(CCCl)CCCl)N(CCCl)CCCl   120
7  O=P1(N(CCCl)CCCl)NC(OO)CCO1 (stereo not given) [PERFOSFAMIDE]    11
8  CN(C)c1cc(COP(N)(=O)N(CCBr)CCBr)sc1[N+](=O)[O-] (stereo not given)    52
9  O=[N+]([O-])c1ccc(COP(=O)(N(CCBr)CCBr)N(CCBr)CCBr)o1   1.7

====

- System: MCF7-CP
- protocol summary: Tested in vitro for cytotoxicity against MCF-7/CP 4-hydroperoxycyclophosphamide-resistant human breast cancer cells
- Assay type: functional
# cutoff 50 µM applies to LC99; >= gives yes (1), < gives no (0)

>>> print(df.to_string())
                                    molecule  label_value
 0  NP(=O)(OCc1cc(Br)c([N+](=O)[O-])s1)N(CCBr)CCBr (centres undefined)       no (0)
 1  O=[N+]([O-])c1ccc(COP(=O)(N(CCCl)CCCl)N(CCCl)CCCl)s1       no (0)
 2  O=P1(N(CCCl)CCCl)NC(OO)CCO1 (centres undefined) [PERFOSFAMIDE]      yes (1)
 3  O=[N+]([O-])c1ccc(COP(=O)(N(CCCl)CCCl)N(CCCl)CCCl)o1       no (0)
 4    O=P(OCc1cccs1)(N(CCCl)CCCl)N(CCCl)CCCl      yes (1)
 5  Cn1c([N+](=O)[O-])cnc1COP(=O)(N(CCCl)CCCl)N(CCCl)CCCl      yes (1)
 6  NC(=O)c1cc(COP(N)(=O)N(CCBr)CCBr)sc1[N+](=O)[O-] (centres undefined)       no (0)
 7  CN(C)c1cc(COP(N)(=O)N(CCBr)CCBr)sc1[N+](=O)[O-] (centres undefined)      yes (1)
 8  O=[N+]([O-])c1ccc(COP(=O)(N(CCBr)CCBr)N(CCBr)CCBr)s1       no (0)
 9  N#Cc1cc(COP(N)(=O)N(CCBr)CCBr)sc1[N+](=O)[O-] (centres undefined)       no (0)
10  O=[N+]([O-])c1ccc(COP(=O)(N(CCBr)CCBr)N(CCBr)CCBr)o1       no (0)
11  Cn1c(COP(=O)(N(CCCl)CCCl)N(CCCl)CCCl)ccc1[N+](=O)[O-]      yes (1)
12    O=P(OCc1ccco1)(N(CCCl)CCCl)N(CCCl)CCCl      yes (1)

====

- Tested on: B16
- protocol summary: Tested in vitro for cytotoxicity against B16 murine melanoma cells
- Format: functional, Mus musculus
observed property: LC99 (µM)

In [3]: df
Out[3]:
                                   compound  observed_property  unit_tag  val
0  NC(=O)c1cc(COP(N)(=O)N(CCBr)CCBr)sc1[N+](=O)[O-] (centres undefined)               LC99        µM  1.4
1  O=[N+]([O-])c1ccc(COP(=O)(N(CCCl)CCCl)N(CCCl)CCCl)s1               LC99        µM  5.1
2    O=P(OCc1ccco1)(N(CCCl)CCCl)N(CCCl)CCCl               LC99        µM   53
3  Cn1c([N+](=O)[O-])cnc1COP(=O)(N(CCCl)CCCl)N(CCCl)CCCl               LC99        µM  150

====

- Tested on: HT-29
- protocol summary: Tested in vitro for cytotoxicity against HT-29 human colon carcinoma cells under hypoxic condition
- Type: functional
// reported LC99 per item
observed property: LC99 (µM)

                                   compound  system_under_test  unit_tag   val
0  N#Cc1cc(COP(N)(=O)N(CCBr)CCBr)sc1[N+](=O)[O-] (configuration not stated)              HT-29        µM  0.22
1  O=[N+]([O-])c1ccc(COP(=O)(N(CCCl)CCCl)N(CCCl)CCCl)s1              HT-29        µM   6.2
2  Cn1c([N+](=O)[O-])cnc1COP(=O)(N(CCCl)CCCl)N(CCCl)CCCl              HT-29        µM    28
3  NP(=O)(OCc1cc(Br)c([N+](=O)[O-])s1)N(CCBr)CCBr (configuration not stated)              HT-29        µM  0.25
4  NC(=O)c1cc(COP(N)(=O)N(CCBr)CCBr)sc1[N+](=O)[O-] (configuration not stated)              HT-29        µM  0.33
5  O=[N+]([O-])c1ccc(COP(=O)(N(CCCl)CCCl)N(CCCl)CCCl)o1              HT-29        µM   3.4
6  CN(C)c1cc(COP(N)(=O)N(CCBr)CCBr)sc1[N+](=O)[O-] (configuration not stated)              HT-29        µM   8.9
